Would you kindly list Potency for each of these compounds?
tested on: Trypanosoma brucei 6-phosphofructokinase (PFK); experiment: Confirmatory Assay to Find Inhibitors of T. brucei phosphofructokinase: ATP-depletion Assay; details: recombinant T. brucei PFK, Kinase-Glo ATP depletion luminescence; series mostly up to 57.5 µM
Inconclusive results are not listed. Active and inactive are the calls of the source. Calls come from the whole dose curve; as a rule, active = well fitted inhibition curve with a large enough effect; inconclusive = small, poorly fitted or top-dose-only effect; inactive = flat fitted curve, though single readings scatter.

Q: Can you share its Potency? I mean this compound: Cc1cc(NS(=O)(=O)c2ccc(NC(=O)Cc3cccc(Cl)c3)cc2)no1
Result: 5.17 µM (active)

Q: Cc1cc(NS(=O)(=O)c2ccc(NC(=O)Cc3ccc(Cl)cc3Cl)cc2)no1 , same question.
Result: 4.61 µM (active)

Q: Cc1cc(NS(=O)(=O)c2ccc(NC(=O)Cc3ccc(C)c(F)c3)cc2)no1 , same question.
Result: 5.17 µM (active)

Q: Cc1cc(N[S+](=O)([O-])c2ccc3cc(NC(=O)Cc4ccc(Cl)c(Cl)c4)ccc3c2)no1 , same question.
Result: 5.17 µM (active)

Q: Cc1cc(NS(=O)(=O)c2ccc(C(=O)NCc3ccc(Cl)c(Cl)c3)cc2)no1 , same question.
Result: 2.31 µM (active)

====

tested on: Trypanosoma brucei 6-phosphofructokinase (PFK); test: Confirmatory Assay to Find Inhibitors of T. brucei phosphofructokinase: ATP-depletion Assay; conditions: recombinant T. brucei PFK, Kinase-Glo ATP depletion luminescence; series mostly up to 57.5 µM
Records with an inconclusive call do not appear. Calls of active or inactive are those of the source. Calls follow the shape of the dose curve; as a rule, active = well fitted inhibition curve with a large enough effect; inconclusive = small, poorly fitted or top-dose-only effect; inactive = flat fitted curve, though single readings scatter.
REPORTED_PROPERTY: Potency

Q: Which measured Potency belongs to O=C(Cc1ccc(Cl)c(Cl)c1)Nc1ccc(S(=O)(=O)Nc2ccn[nH]2)cc1 , tested on Trypanosoma brucei 6-phosphofructokinase (PFK)?
Result: 0.326 µM (active)

Q: Cc1cc(NS(=O)(=O)c2ccc(NC(=O)Cc3ccc(Cl)c(Cl)c3)cc2)n(C)n1 , same question.
Result: 1.03 µM (active)

Q: Cc1cc(NS(=O)(=O)c2ccc(NC(=O)Cc3ccc(Cl)cc3)cc2)no1 , same question.
Result: 2.59 µM (active)

Q: O=C(Cc1ccc(Cl)c(Cl)c1)Nc1ccc(S(=O)(=O)Nc2ccccc2)cc1 , same question.
Result: 10.3 µM (active)

Q: CN(C)c1cccc(NS(=O)(=O)c2ccc(NC(=O)Cc3ccc(Cl)c(Cl)c3)cc2)c1 , same question.
Result: 16.3 µM (active)

Q: Cc1cc(NS(=O)(=O)Cc2ccc(NC(=O)Cc3ccc(Cl)c(Cl)c3)cc2)no1 , same question.
Result: 2.91 µM (active)

====

test system: Trypanosoma brucei 6-phosphofructokinase (PFK); experiment: Confirmatory Assay to Find Inhibitors of T. brucei phosphofructokinase: ATP-depletion Assay; settings: recombinant T. brucei PFK, Kinase-Glo ATP depletion luminescence; series mostly up to 57.5 µM
Records with an inconclusive call do not appear. Calls of active or inactive are those of the source. Calls follow the shape of the dose curve; as a rule, active = well fitted inhibition curve with a large enough effect; inconclusive = small, poorly fitted or top-dose-only effect; inactive = flat fitted curve, though single readings scatter.
REPORTED_PROPERTY: Potency

Q: Can you share its Potency? I mean this compound: Cc1cc(N(C)S(=O)(=O)c2ccc(NC(=O)Cc3ccc(Cl)c(Cl)c3)cc2)no1
Result: 2.59 µM (active)

Q: Cc1cc(NS(=O)(=O)c2cccc(NC(=O)Cc3ccc(Cl)c(Cl)c3)c2)no1 , same question.
Result: 16.3 µM (active)

Q: O=C(Cc1ccc(Cl)c(Cl)c1)Nc1ccc(S(=O)(=O)O)cc1 , same question.
Result: 0.58 µM (active)

Q: Cc1cc(NS(=O)(=O)c2ccc(NC(=O)Cc3ccc(Cl)c(F)c3)cc2)no1 , same question.
Result: 0.73 µM (active)
